Protocol details: label from the status in PepcDB records
Assay metric: protein production

# Residue string, Value
data = [
    ("MEKVTKMISRMMVRVVTVAFALSLVAVACHEAEARAGGGRSFGSRGTRTYRPPTRTVDPAPASRPQPAPAVPQTFPQQRQGGSFLRSMAGGIVGGLLGGMLFRSLGFAGPGAGGVGLFDILLIGGILYLVYRFVASRRREAAATAGRAPDWSREEPVTPQQYRYGQPAESVPAAGADSGLAHVRQMDGSFSEEQFRQLAQDVFFRVQGAWTRRDLSSAREVLAPEMERALQGDVAELKARGQVNRLENIAVRQVELVEAWQEEGCDFITVRFLANLLDYTTDEEGRVLSGSDREPVKFEEFWTFTRPVGPNPWKLSAIQQA", "failed"),
    ("HPLLAGIPFRQLARPLMQDLAYSVRGTVSIGLLDGPSVVYVETARSGDVGPHTPDIGMPIPVVRTAMGRAAASTLPEAEAERLDRQLEAADGAMWASHRDLYRDGLRQCAERQFCTCFGDYLPAIHAVAAPLFRQRDRSFAINCGIPAFRLQPGQLEDEIGPRVRALAESIRALGVDPE", "failed"),
]

====

Protocol details: label from the status in PepcDB records
Assay metric: protein production

# annotated cases, reported protein production shown
# Residue string, Value
records = [
    ("PRKASRKPPREESSATCVLEQPGALGAQILLVQRPNSGLLAGLWEFPSVTWEPSEQLQRKALLQELQRWAGPLPATHLRHLGEVVHTFSHIKLTYQVYGLALEGQTPVTTVPPGARWLTQEEFHTAAVSTAMKKVFRVYQGQ", "not failed"),
    ("MDIHIKPINTFAHAEMDALYTMIFHFYEEYDPTHVITKESINDTIIHLTNHPESGSIQFVYDAENALVGYVILIKYWSNEYQGYLLFIDELYIVPDKRSLGYGRTCITLIEKTFHDIQALALEVSPKNTRAQAFYLQLGFLPNKNKTFIKIKY", "failed"),
    ("MTPMPSSVKPVEGRSVLIEWQDGHSSLYENVYLREHCQCAECVHEWTGEKLISRERIPADIRPVSVSAVGNYALSIRFSDGHGTGVYSYELLRKICPCPLCKA", "failed"),
    ("VRLRNLVESDRERLLIWRNSPDVSAYMYSDHKIGHEEHDHWFDVARHDPRRRYWIIEADGEPVGLANLADIDLVHRRCAWAYYLASPKVRGLGVGSFVEFQIIEYVFNQLHLNKLWCEVLISNESVWRLHELYGFQREALFRQHVMKQGHEVDVIGLGLLASDWAARR", "failed"),
    ("MLPKRQLFLDRLNQALAWSQFSGVPGALLLIDLGLPAHLDGSPSLSPDAEENLEIIANRLQAYVRPHETLAHLNHHQFGLLLLDPDVQLRAEERAHGIQTLIRDRLAGFEGGAHIGIVPLTPETPATVLLQAAEAAAMTARSQQQGHLSLEASLEHHHHHH", "not failed"),
    ("NGQSDVKHIGILQYVEHPSLTATRKGFIKELAKEGYKDGKNIKIEYKNAQGDQSNIQSISEKLIKDNKLVLGIATPAAQSLTTVSTETPILFTAVTDPVSAELVKSMKKPEGLATGTSDMSPIKKQVSLLRKVMPKVKRVGIMYTTSERNSEVQVKQAKKIFQEAGIKTSVKGISSTNDVQDTAKSLMSKTEVIFVPTDNIIASSVTLLGNLSKELKVPVVGGSADMVPSGLLFSYGADYEALGRQTARQAVKILKGKDVAKVPSEYPQNLKVVVNEDMAKELGIDVSSIK", "not failed"),
]

// protein production lookup, sequence = PKRTAATAGALMIGVAVVSLFTVFGASLKATMDQTVSRSFAGDVAVSAPSFGAGGSGLSPRLAGAIQELPEVDTAVGLGRGVAEVDGQGRALTVTDPAALNRTFDLGAVHGSLDDLGTDGIAITENEADERGLTTGDTTRLTFTDGHSGTFTVRAVYGQSELAGDYVITRAAWAPHRTQDSDTLVAVAFEDGVGADAGKAAVEKVADRYGNPEVQTREEYAESSAGGIDMMLTLVYALLALAVLIALLGISNTLTLAVHERTRELGLLRAVGQTRAQLRAMVRWESVLVAAFGTVGGLGLGAFLGWVLVAASDGASDSAFAFAVPPAQLAVVALVGLAAGALAGVRPARRASRLDVLRAVAT , result: failed

====

Protocol details: label from the status in PepcDB records
Assay metric: protein production

# annotated cases, reported protein production shown
# Residue string, protein production
records = [
    ("MIISSLTNPNFKVGLPKVIAEVCDYLNTLDLNALENGRHDINDQIYMNVMEPETAEPSSKKAELHHEYLDVQVLIRGTENIEVGATYPNLSKYEDYNEADDYQLCADIDDKFTVTMKPKMFAVFYPYEPHKPCCVVNGKTEKIKKLVVKVPVKLI", "not failed"),
    ("MMSKVVSKMKSFLGFDEFEDEDEVMEEEEVMEEEESFAPVLSSKKNGKVVNIHTANTAKLMITKPLVYDDATEICTALKNRKIVVINTTSLELRTAQRLIDFVGGACYALCGELQEVEKGVFIVSPSNVEVSNELKSELSNKGMFNWASKLEHHHHHH", "not failed"),
    ("IDSGLSPSVLMASNSGRRSAPPLNLTGLPGTEKLNEKEKELCQVVRLVPGAYLEYKSALLNECHKQGGLRLAQARALIKIDVNKTRKIYDFLIREGYITKA", "not failed"),
    ("MKTNSEELTVFVQVVESGSFSRAAEQLEMANSAVSRIVKRLEEKLGVNLLNRTTRQLNLTEEGAQYFRRAQRILQEMAAAETEMLAVHEVPQGVLRVDSAMPMVLHLLAPLAAKFNERYPHIRLSLVSSEGYINLIERKVDIALRAGELDDSGLRARHLFDSHFRVVASPEYLAKHGTPQSAEDLANHQCLGFTEPGSLNTWAVLDAQGNPYKISPHFTASSGEILRSLCLSSCGIACLSDFLVDNDITEGKLIPLFAEQTSNKTHPFNAVYYSDKAVNLRLRVFLDFLVKELGKNMNRTNTK", "not failed"),
    ("MVKSIVILIETVTMKIPAVYSDGSFKTFNDSETTAQKLVDSGVVNTFAFGPTLVENGKVAVSENEEVGQDMADNPRTAIVVNEESDRSVHYIVIVSDGRTSESSGLTLYEMAELMKSYGVMTGYNLDVGDSSTMYSNGQVINKPTRKRKQNLRKGGERYRLHRLLKNLLASTFSPPILVLEHHHHHH", "not failed"),
    ("MSSSGIEIAKPFVTATTNVLSTMAGIQPIPGQPYVKKNNVAKGDVSAVVGITGHKNGSISVTFTKQCAIAVVKAMLGDDIQDIIQDTKDAVGEVTNMISGQARAALSEMGMTFQGATPSVIMGDGHTISHVTKSPVIAIPFKTNHGEFTVEFCLE", "not failed"),
]

Alright, here's another sequence for you.
// protein production lookup, sequence = MADIQGEDLESLYGYAKQLFDGGEIAAARNVYQLLSTLDHWNFDYLLALGLCHQRLGAHNEAVVCFGRAGLIKVDDPRAAFYAGISYRLDGNAEYASKAFKAAINWCGEQIDYQAIKASAVDMLALQQEEVPLEHHHHHH , result: not failed

====

Protocol details: label from the status in PepcDB records
Assay metric: protein production

# annotated cases, reported protein production shown
# Residue string, Assay metric, Value
measured = [
    ("RLSAREAIALLSDDFDRLPVAEGAYAPDGPLSWQGYDASRARATERTGEDESVVCGRARIDGTPAVLIAFEFGFLGGSLGERTGDRLEAAYTYARAHRLPVVSLVATGGSRMQEGMLALTQLQRVARQSALTRAAGLPQLAVLRDPTTGGGWATLGAGADVVLALPGVQVGFAGSRVRPPDADPAAYTAQAQLAAGSIDAVVRPQELRETVGLWLALLTAPSTEP", "protein production", "failed"),
    ("MDTVWMEIWTTVRNEFADIPDVAEATRIVLRLGMAVALGGLLGYERERSGKAAGLRTHMLVALGAALFVLVPLQGGMEVGDLSRVLQGVIAGIGFLGAGAIIKLGNEGEIRGLTTSAGIWLTAAIGVAAGMGREATALASTLIALFVLAALRHLEKRIAARDDKRVVAQPPP", "protein production", "failed"),
    ("MLSRRASLAAIAIGLIAAAGAAHAQSPLGIGSAEPSFSLGGPFAPLMQWINVHQQMFYRALTGALKAMREDSWALGSLIGLSFAYGVFHAAGPGHGKAVISSYMIANETQLRRGILISFVSALIQGLMAIGLVGAAWLVLRGTSITMTKATQAMEIASFAMVALFGAWLLVRKLWSLRIRREPVPVFATAGEAPAARTNGMGTGLRFQGKPVFADHDHNGTGDLCTACGKSHAPDPMLLKGKNFSLHEAWSAIIAVGLRPCSGAIIVMSFALLNGLYLGGVLSVLAMSLGTAITVSALAIMAVSAKGLAVRFAGPGSRKAAGISHAIEIAGALFVLIMGLLLLGASLQF", "protein production", "failed"),
    ("MKTGKELKPGTVIRLENDPWLVQKAEFTKSGRNSAIMKTKLKNLLTGYKTEIVYSADDKLDDVILDRKEATLSFISGDTYTFMDTTDYTMYELNAEDIESVLPFVEEGMTDVCEAVFFDERLVSVELPTTIVRQVDYTEGSARGDTSGKVMKPAKLKNGTELSVADFIEIGDMIEIDTREGGSYKGRAKLEHHHHHH", "protein production", "failed"),
    ("MESESSGLSFPLGLYDAIIAHARSVFPEECCGLVAAPAGGAPIRVIPMENALHSPVRYEMNPKEQFQVQKNLRREGLEMWAIYHSHPVTRPYPSETDIRLAFYPELYYLLTSLAEDPPPLKAYTIQNGVVREIPLKVSPGES", "protein production", "failed"),
    ("MSKKQKSKYIVIFGCGRLGSLIANLASSSGHSVVVVDKNEYAFHRLNSEFSGFTVVGDAAEFETLKECGMEKADMVFAFTNDDSTNFFISMNARYMFNVENVIARVYDPEKIKIFEENGIKTICPAVLMIEKVKEFIIGSEED", "protein production", "not failed"),
]

// protein production lookup, sequence = SQLINLPMDQILYLSTSDIKHHVHLQTIHTLMDIRANLADFKKIHKKLYPCHRSYIVNTDMIISVNKTNYEATLINGQVLPVSRMKIGKIAQIVEERGR , result: not failed

// protein production lookup, sequence = MKKILCAVLLLFTGASWANSDDLETSGDVVHLLLPATALGATLFYEEGHEGSWQLLKAAVSSRVIVEGLKLGVNKDRPDGSGDDSFPSGHTSDSFMAATFIQQRYGWQYGLPAYLAASYVGYTRVESDKHYVEDVLAGAAIGMLAGWYFTEPYKGITVTPLAHNGVYGLYISGQF , result: failed
